System: Phytophthora infestans
Assay: whole plant or invertebrate
Type: in vivo
Settings: 200 ppm test suspension
The threshold is inclusive: Test J disease control rating of exactly 80% counts as met; values below receive not met.

| compound | category |
| --- | --- |
| CCC(C)Nc1nccc(-c2c(-c3ccc(F)cc3)nn3c2CCCC3)n1 (stereo not drawn) [compound 2] | not met |
| Cc1ccccc1-c1nn2c(c1-c1ccnc(NC(C)CO)n1)CCCC2 (stereo not drawn) | met |
| CNc1nccc(-c2c(-c3ccc(F)cc3)nn3c2CCCC3)n1 | met |
| CC(C)Nc1nccc(-c2c(-c3ccccc3F)nn3c2CCC3)n1 | met |
| CC(C)(CO)Nc1nccc(-c2c(-c3ccc(F)cc3)nn3c2CCCC3)n1 | not met |

Q: Is the recorded value of Test J disease control rating equal to or greater than 80% for this compound? "Fc1ccc(-c2nn3c(c2-c2ccnc(NC4CC4)n2)CCC3)c(F)c1"
Ans: met

Q: Hi, just wondering whether CCC(C)CNc1nccc(-c2c(-c3ccc(F)cc3)nn3c2CCCC3)n1 (stereo not drawn) shows Test J disease control rating of 80% or higher.
Ans: not met

Q: Has "CONc1nccc(-c2c(-c3ccc(F)cc3)nn3c2CCCC3)n1" a recorded Test J disease control rating greater than or equal to 80%?
Ans: not met
